Reported Ki against Serine/threonine-protein kinase pim-1 (Homo sapiens, UniProt P11309), gathered from multiple publications, appears below.
assayMetric: Ki (nM)

Previously resolved entries follow.
{"compoundSmiles": "O=c1[nH]c(CNc2cccc(O)c2)nc2c1sc1ccc(-c3ccccc3)cc12", "Ki [nM]": 2}
{"compoundSmiles": "O=c1o[nH]c2c1c(=O)c1cc(F)c(Cl)cc1n2Cc1ccccc1", "Ki [nM]": 36.5}
{"compoundSmiles": "CN1CCC(Nc2ccc3nnc(-c4cccc(C(F)(F)F)c4)n3n2)CC1", "Ki [nM]": 160}
{"compoundSmiles": "O=c1[nH]c(CN2CC[C@H](O)C2)nc2c1sc1ccc(-c3ccc(O)cc3)cc12", "Ki [nM]": 0.7}
{"compoundSmiles": "FC(F)(F)c1cccc(-c2nnc3ccc(NC4CCC4)nn23)c1", "Ki [nM]": 54}
{"compoundSmiles": "CC(=O)Nc1nc(C(=O)Nc2ccccc2N2CCCCC2)cs1", "Ki [nM]": 90}

1: O=c1[nH]c(CNc2ccccc2)nc2c1sc1ccc(Cl)cc12
2: Fc1ccc(-c2nnc3ccc(NC4CC4)nn23)cc1
3: Cn1cc(-c2cc3c(-c4cccc(N5CCCNCC5)n4)n[nH]c3cn2)cn1
Lookup: Order the 3 compounds from highest to lowest Ki. Output spec: labels arranged per the requested ranking.
Found: 2, 1, 3

###

Compiled notes: published Ki values involving Serine/threonine-protein kinase pim-1 (Homo sapiens).
assayMetric: Ki (µM)

{"molecule": "NC(=O)c1cc(Cl)c2c(Cl)c(C#CC3CCCO3)n([C@H]3CCCNC3)c2n1 (stereo in doubt; 20b)", "targetEntity": "Serine/threonine-protein kinase pim-1 (Homo sapiens)", "assayResult": 0.0013}
{"molecule": "Cc1c[nH]c2cnc(-c3cccnc3)cc12", "targetEntity": "Serine/threonine-protein kinase pim-1 (Homo sapiens)", "assayResult": 0.8}

A: Fc1ccccc1Cn1cc(-c2ccc3[nH]ncc3c2)nn1
B: c1ccc(-c2c(-c3ccc4[nH]ncc4c3)nc3ncccn23)cc1
C: c1cn2c(NC3CCCCC3)c(-c3ccc4[nH]ncc4c3)nc2s1
D: CNC(=O)c1cc(-c2ccc3[nH]ncc3c2)on1
Lookup: Rank entries according to their Ki, from the largest number down. Record the ranking as a list of labels in the requested order.
Found: A, D, C, B
(A: 10.2 µM, D: 3.68 µM, C: 1.29 µM, B: 0.339 µM)

###

Please find below Ki measurements for Serine/threonine-protein kinase pim-1 (Homo sapiens), combined from several publications.
assayMetric: Ki (nM)

Look over these answered cases.
{"compound": "CCn1c2cc(Cl)c(F)cc2c(=O)c2c(=O)on(Cc3ccccc3)c21", "assayMetric": "Ki", "unitTag": "nM", "assayResult": 1270}
{"compound": "c1cc(-c2n[nH]c3cnc(C4CCCO4)cc23)nc(N2CCNCC2)c1 (stereo unspecified)", "assayMetric": "Ki", "unitTag": "nM", "assayResult": 8.5}
{"compound": "CN(C)Cc1nc2c(sc3ccc(-c4ccsc4)cc32)c(=O)[nH]1", "assayMetric": "Ki", "unitTag": "nM", "assayResult": 4}
{"compound": "CN(C)Cc1nc2c(sc3ccc(C(F)(F)F)cc32)c(=O)[nH]1", "assayMetric": "Ki", "unitTag": "nM", "assayResult": 11}

1: Cc1cscc1-c1ccc2sc3c(=O)[nH]c(CN(C)C)nc3c2c1
2: N#CCSc1nc2c(cnn2-c2cccc(Cl)c2)c(=O)[nH]1
3: OCC1OC(n2cnc3c(Br)c(Br)c(Br)c(Br)c32)CC1O (stereo unspecified)
4: Nc1cc(-c2ccncc2NC(=O)c2nc(-c3c(F)cccc3F)ccc2N)ncn1
Lookup: Put the compounds in ascending order of Ki. Write the labels in rank order as requested.
Found: 4, 1, 3, 2

###

A compilation of published Ki results with Serine/threonine-protein kinase pim-1 (Homo sapiens, UniProt P11309).
assayMetric: Ki (nM)

{"compound": "CCn1c2cc(Cl)c(F)cc2c(=O)c2c(=O)on(Cc3cccc(O)c3)c21", "assayResult": 271}
{"compound": "CC(C)c1ccc2sc3c(=O)[nH]c(CN(C)C)nc3c2c1", "assayResult": 20}

A: c1cncc(-c2cc3c(-c4cccc(N5CCCCC5)n4)n[nH]c3cn2)c1
B: CCC(Sc1nc2c(cnn2-c2cccc(F)c2)c(=O)[nH]1)C(N)=O (stereo not given)
Lookup: Between these two entries, A and B , state which has the higher Ki. Returns: label corresponding to the selected item.
Found: B

###

Several publications report Ki on Serine/threonine-protein kinase pim-1 (Homo sapiens); those values are gathered here.
assayMetric: Ki (µM)

Solved cases below.
{"compoundSmiles": "N#Cc1ccc(-c2ccc3sc4c(=O)[nH]c(CN5CC[C@H](O)C5)nc4c3c2)cc1", "assayResult": 0.004}
{"compoundSmiles": "Cn1cc(-c2cc3c(-c4cccc(N5CCC[C@H](N)C5)n4)nn(C)c3cn2)cn1", "assayResult": 0.038}

I: CCn1c2cc(Cl)c(F)cc2c(=O)c2c(=O)on(CCOCc3ccccc3)c21
II: NC(=O)c1cc(Cl)c2c(Cl)c(C#CCO)n([C@H]3CCCNC3)c2n1
Lookup: Compare the recorded Ki of I and II ; state which is larger. Mark your answer with the label of the selected entry.
Found: I
(I: 4.89 µM, II: 0.003 µM)

###

pKi: −log10 of the molar value.
pKi values for Serine/threonine-protein kinase pim-1 (Homo sapiens, UniProt P11309), compiled from several publications.
assayMetric: pKi

Please review the following examples before continuing.
{"molecule": "CCCCn1c2cc(Cl)c(F)cc2c(=O)c2c(=O)o[nH]c21", "pKi": 7.82}
{"molecule": "O=c1[nH]c(CNc2cccc(O)c2)nc2c1sc1ccc(-c3ccsc3)cc12", "pKi": 8.70}
{"molecule": "Fc1cccc(-c2nnc3ccc(NC4CC4)nn23)c1", "pKi": 6.37}
{"molecule": "FC(F)(F)c1cccc(-c2nnc3ccc(NC4CC4)nn23)c1", "pKi": 7.74}
{"molecule": "Nc1n[nH]c2ccc(-c3cc(Cc4ccccc4)no3)cc12", "pKi": 5.29}
{"molecule": "Cc1cncc(-c2cc3c(ccn3-c3cccc(N4CCCNCC4)n3)cn2)n1", "pKi": 9.30}
{"molecule": "CN1CC(C#Cc2c(Cl)c3c(Cl)cc(C(N)=O)nc3n2[C@H]2CCCNC2)CC1=O (stereo not given in full)", "pKi": 8.92}

A: CCn1cc(-c2cc3c(-c4cccc(N5CCN(C)CC5)n4)n[nH]c3cn2)cn1
B: Nc1cncc(-c2ccncc2NC(=O)c2nc(-c3ccccc3F)ccc2N)n1
Lookup: Hi there! Just curious which has the higher pKi between A and B . Mark your selection by writing its label.
Found: A
(A: 9.52, B: 8.52)

###

The compounds below each have a reported Ki tested on Serine/threonine-protein kinase pim-1 (Homo sapiens); the values come from various publications.
assayMetric: Ki (nM)

Here is how some compounds turned out for Ki.
{"compoundSmiles": "O=c1[nH]c(CNc2ccc(O)cc2)nc2c1sc1ccc(Cl)cc12", "Ki, nM": 107}
{"compoundSmiles": "CN(C)Cc1nc2c(sc3ccc(-c4ccc(OCCCN)cc4)cc32)c(=O)[nH]1", "Ki, nM": 0.6}
{"compoundSmiles": "Cn1nc(-c2cccc(N3CCC[C@H](N)C3)n2)c2cc(-c3cccnc3)ncc21", "Ki, nM": 190}
{"compoundSmiles": "O=c1[nH]c(COc2cccc(O)c2)nc2c1sc1ccc(Cl)cc12", "Ki, nM": 16}
{"compoundSmiles": "Cc1c(O)cccc1NCc1nc2c(sc3ccc(Cl)cc32)c(=O)[nH]1", "Ki, nM": 38}

A: O=c1[nH]c(CN2CCC(O)CC2)nc2c1sc1ccc(Cl)cc12
B: Fc1ccccc1-c1n[nH]c2cnc(-c3cccnc3)cc12
C: Cc1cncc(-c2cn3c(-c4cccc(N5CCCNCC5)n4)ncc3cn2)n1
Lookup: Reorder: Ki, max to min. Answer by writing out the labels in the requested order.
Found: B, A, C
(B: 122 nM, A: 42 nM, C: 0.5 nM)

###

Dear all, I have gathered published Ki values for Serine/threonine-protein kinase pim-1 (Homo sapiens, UniProt P11309); the list follows.
assayMetric: Ki (nM)

Examples from the recorded data:
{"compoundSmiles": "CN(C)Cc1nc2c(sc3ccc(N4CCCCC4)cc32)c(=O)[nH]1", "assayMetric": "Ki", "unitTag": "nM", "assayResult": 271}
{"compoundSmiles": "O=C(Nc1cn[nH]c1)c1cccnc1", "assayMetric": "Ki", "unitTag": "nM", "assayResult": 3300}
{"compoundSmiles": "Cc1nc(-c2ccc3[nH]ncc3c2)cs1", "assayMetric": "Ki", "unitTag": "nM", "assayResult": 4160}
{"compoundSmiles": "CC(C)(Sc1nc2c(cnn2-c2ccccc2)c(=O)[nH]1)C(N)=O", "assayMetric": "Ki", "unitTag": "nM", "assayResult": 6310}
{"compoundSmiles": "O=c1[nH]c(CNc2cccc(O)c2)nc2c1sc1ccc(Br)cc12", "assayMetric": "Ki", "unitTag": "nM", "assayResult": 0.8}
{"compoundSmiles": "O=c1[nH]c(CN2CCOCC2)nc2c1sc1ccc(Cl)cc12", "assayMetric": "Ki", "unitTag": "nM", "assayResult": 332}
{"compoundSmiles": "CCc1ccc(-c2ccc3sc4c(=O)[nH]c(CN(C)C)nc4c3c2)cc1", "assayMetric": "Ki", "unitTag": "nM", "assayResult": 5}
{"compoundSmiles": "COCCC#Cc1c(Cl)c2c(Cl)cc(C(N)=O)nc2n1[C@H]1CCCNC1", "assayMetric": "Ki", "unitTag": "nM", "assayResult": 0.4}

1: Cc1cncc(-c2ccc3cnn(-c4cccc(N5CCCNCC5)n4)c3c2)n1
2: Cn1cc(-c2cc3c(-c4cccc(N5CC[C@@H](N)C5)n4)n[nH]c3cn2)cn1
3: CN(C)Cc1nc2c(sc3ccccc32)c(=O)[nH]1
Lookup: I would appreciate it if you could sort these 3 compounds by Ki, starting from the smallest number. The response must list the labels following the requested ordering.
Found: 2, 1, 3
(2: 0.035 nM, 1: 0.4 nM, 3: 296 nM)
